Assignment: determine reported Degradation rate of ERα in MCF-7 cells (%) for the given compounds.
Target: ERα (Homo sapiens, UniProt P03372)
Sequence (P03372 1-595): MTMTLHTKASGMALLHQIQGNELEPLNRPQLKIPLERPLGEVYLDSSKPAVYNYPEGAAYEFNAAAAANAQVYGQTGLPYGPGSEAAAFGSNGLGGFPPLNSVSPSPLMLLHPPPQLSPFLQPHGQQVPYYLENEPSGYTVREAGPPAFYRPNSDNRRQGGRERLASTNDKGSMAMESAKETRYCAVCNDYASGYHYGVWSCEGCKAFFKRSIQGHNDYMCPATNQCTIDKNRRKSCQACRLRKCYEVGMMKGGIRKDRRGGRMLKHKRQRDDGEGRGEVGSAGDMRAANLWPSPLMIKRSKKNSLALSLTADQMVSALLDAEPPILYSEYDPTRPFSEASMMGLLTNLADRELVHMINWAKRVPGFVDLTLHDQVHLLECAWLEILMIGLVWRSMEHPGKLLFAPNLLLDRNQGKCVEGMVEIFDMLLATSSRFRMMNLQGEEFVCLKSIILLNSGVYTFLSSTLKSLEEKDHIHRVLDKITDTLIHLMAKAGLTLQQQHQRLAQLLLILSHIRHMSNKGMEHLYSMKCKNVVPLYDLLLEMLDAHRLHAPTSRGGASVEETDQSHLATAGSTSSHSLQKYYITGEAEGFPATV
Assay: ERα degradation in MCF-7 cells (Western blot)
Assay type: cell-based
Design: host or cells: MCF-7
Conditions: 1nM, 4 hours
// units = %; emit number, no label

Per the record, Cn1c(=O)n(C2CCC(=O)NC2=O)c2cc3c(cc21)C1(CCN(C2CCN(c4ccc([C@@H]5c6ccc(O)cc6CC[C@@H]5c5ccccc5)cc4)CC2)CC1)CO3 (some centres unmarked) [ER-P-11] has Degradation rate of ERα in MCF-7 cells (%) of -18

What the record says about O=C1CCC(N2Cc3c(ccc4c3OCC43CCC4(CCN(C5CC6(CCN(c7ccc([C@@H]8c9ccc(O)cc9CC[C@@H]8c8ccccc8)cc7)CC6)C5)CC4)CC3)C2=O)C(=O)N1 (some centres unmarked) [ER-P-3] : Degradation rate of ERα in MCF-7 cells (%) is 25

Degradation rate of ERα in MCF-7 cells (%) reported for this compound Cn1c(=O)n(C2CCC(=O)NC2=O)c2ccc3c(c21)C1(CCN(C[C@H]2CC[C@@H](OC4CCN(c5ccc([C@@H]6c7ccc(O)cc7CC[C@@H]6c6ccccc6)cc5)CC4)CC2)CC1)CO3 (some centres unmarked) [ER-P-66] : 6

Entry O=C1CCC(Nc2ccc3c(c2)OCC2(CCN(C[C@H]4CC[C@@H](OC5CCN(c6ccc([C@@H]7c8ccc(O)cc8CC[C@@H]7c7ccccc7)cc6)CC5)CC4)CC2)C3)C(=O)N1 (some centres unmarked) [ER-P-41] ; Degradation rate of ERα in MCF-7 cells (%) = 13

Reported Degradation rate of ERα in MCF-7 cells (%) of O=C1CCC(N2Cc3c(ccc4c3OCC43CCC4(CC3)CN(C(=O)C3CCN(c5ccc([C@@H]6c7ccc(O)cc7CC[C@@H]6c6ccccc6)cc5)CC3)C4)C2=O)C(=O)N1 (some centres unmarked) [ER-P-4] : 9

Values compiled from patent EP4722219A1.
